System: Escherichia coli TOP10
Assay: shrunken log2 fold change of peptide-encoding DNA abundance (4.5 h post-induction vs induction); higher = less antimicrobial activity (less host growth inhibition)
Conditions: time post-induction: 4.5 h; library: site-saturation at positions 5, 18, 19, 20
Exercise: state measured shrunken log2 fold change for each of the sequences provided.
# respond with the number and nothing more

Data request: I would be grateful if you could share the reported shrunken log2 fold change for `RRIRPRPPRLPRPRPRPGDYPRP` .
Data returned: -0.0215

Data request: Now the sequence `RRIRHRPPRLPRPRPRPSLHPRP`
Data returned: -0.652

Data request: For `RRIRARPPRLPRPRPRPEALPRP` then?
Data returned: 1.71

Data request: Please answer likewise for `RRIRQRPPRLPRPRPRPEKDPRP`
Data returned: 0.343

---

Test system: Escherichia coli TOP10
Test: shrunken log2 fold change of peptide-encoding DNA abundance (4.5 h post-induction vs induction); higher = less antimicrobial activity (less host growth inhibition)
Details: time post-induction: 4.5 h; library: site-saturation at positions 5, 18, 19, 20
Assign class by shrunken log2 fold change: not lower than -0.03 means Condition met; lower than -0.03 means Condition not met.

Data request: Hi team, for `RRIRWRPPRLPRPRPRPYYGPRP` , is the recorded shrunken log2 fold change at or above -0.03?
Data returned: Condition not met

Data request: Likewise for `RRIRNRPPRLPRPRPRPGRGPRP` ?
Data returned: Condition met

Data request: Would you kindly repeat that for `RRIRARPPRLPRPRPRPMSWPRP` ?
Data returned: Condition met

Data request: Similarly, `RRIRERPPRLPRPRPRPQGWPRP` ?
Data returned: Condition met

Data request: Repeat with `RRIRHRPPRLPRPRPRPDPFPRP`
Data returned: Condition not met

Data request: Please give the result for `RRIRFRPPRLPRPRPRPLNKPRP` too.
Data returned: Condition not met

Data request: What about this sequence? `RRIRFRPPRLPRPRPRPFVAPRP`
Data returned: Condition met

Data request: Again, but for `RRIRSRPPRLPRPRPRPTLLPRP`
Data returned: Condition met

Data request: Similarly, `RRIRFRPPRLPRPRPRPIDRPRP` ?
Data returned: Condition met

Data request: // query: `RRIRFRPPRLPRPRPRPHIDPRP`
Data returned: Condition not met

Data request: Query `RRIRKRPPRLPRPRPRPFFNPRP` next
Data returned: Condition met

---

Please go through the items and note down their shrunken log2 fold change.
System: Escherichia coli TOP10;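 note: peptides expressed intracellularly from a pBAD plasmid library in pooled LB shake-flask culture, induced with 0.3% L-arabinose, DNA abundance read by NGS, three biological replicates, DESeq2 with apeglm shrinkage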
Assay: shrunken log2 fold change of peptide-encoding DNA abundance (4.5 h post-induction vs induction); higher = less antimicrobial activity (less host growth inhibition)
Conditions: time post-induction: 4.5 h; library: site-saturation at positions 5, 18, 19, 20
I only need the number, thanks.

Data request: Endpoint output: shrunken log2 fold change of `RRIRGRPPRLPRPRPRPGTEPRP` . Value?
Data returned: 0.731

Data request: Now the sequence `RRIRQRPPRLPRPRPRPYGKPRP`
Data returned: -0.217

Data request: Repeat with `RRIRVRPPRLPRPRPRPKDIPRP`
Data returned: -0.642

Data request: Consider next the sequence `RRIRKRPPRLPRPRPRPYWDPRP` in the same way.
Data returned: -0.219

Data request: Another sequence to check: `RRIRLRPPRLPRPRPRPSTSPRP`
Data returned: -0.0196

Data request: Another: `RRIRVRPPRLPRPRPRPPQPPRP`
Data returned: 1.38

Data request: Now try `RRIRFRPPRLPRPRPRPEKEPRP` .
Data returned: -0.0104

Data request: Do the same for `RRIRYRPPRLPRPRPRPGQPPRP` please
Data returned: 0.0516

Data request: Now consider `RRIRIRPPRLPRPRPRPWVMPRP` .
Data returned: -0.152

Data request: Try the sequence `RRIRCRPPRLPRPRPRPTVCPRP`
Data returned: -0.0924

Data request: Next entry: `RRIRTRPPRLPRPRPRPHTRPRP`
Data returned: 0.0252

Data request: Follow-up item: `RRIRNRPPRLPRPRPRPVSSPRP`
Data returned: -0.00623

Data request: How about `RRIRRRPPRLPRPRPRPCLNPRP` ?
Data returned: -0.4

Data request: Ok, now `RRIRWRPPRLPRPRPRPTCAPRP`
Data returned: 0.868

Data request: Next up: `RRIRHRPPRLPRPRPRPYEHPRP`
Data returned: -1.01

Data request: Try `RRIRDRPPRLPRPRPRPPYRPRP` next.
Data returned: 0.0425

Data request: Also check `RRIRNRPPRLPRPRPRPRDKPRP`
Data returned: -0.332

Data request: Same question, `RRIRYRPPRLPRPRPRPQRGPRP` this time
Data returned: -0.123

Data request: Same question, `RRIRDRPPRLPRPRPRPTWAPRP` this time
Data returned: 0.168

Data request: Then `RRIRMRPPRLPRPRPRPQWDPRP` ?
Data returned: 0.232

Data request: Repeat with `RRIRRRPPRLPRPRPRPVVIPRP`
Data returned: 0.0625
